Ref: PubChem BioAssay AID588519

# ASSAYED SYSTEM: Genome polyprotein (Poliovirus type 1 (strain Mahoney)) (UniProt P03300)
# Sequence (P03300 1749-2209 limits assumed): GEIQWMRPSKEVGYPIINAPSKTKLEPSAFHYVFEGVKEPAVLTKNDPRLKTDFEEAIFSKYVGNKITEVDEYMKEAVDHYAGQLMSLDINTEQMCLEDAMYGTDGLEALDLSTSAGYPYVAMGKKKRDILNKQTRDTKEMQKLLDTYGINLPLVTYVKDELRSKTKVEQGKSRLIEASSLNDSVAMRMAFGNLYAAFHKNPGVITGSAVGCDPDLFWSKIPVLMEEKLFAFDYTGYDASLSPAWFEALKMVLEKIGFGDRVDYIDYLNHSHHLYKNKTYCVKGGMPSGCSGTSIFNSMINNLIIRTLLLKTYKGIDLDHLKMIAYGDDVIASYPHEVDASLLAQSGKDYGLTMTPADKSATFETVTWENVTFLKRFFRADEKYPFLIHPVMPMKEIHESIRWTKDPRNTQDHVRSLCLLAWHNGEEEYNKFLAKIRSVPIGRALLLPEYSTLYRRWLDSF
# PROCEDURE DETAILS: poliovirus RdRp elongation inhibitors, primary screen, biochemical, fluorescence polarization, total intensity (AID 588519)
# APPLIED CONDITIONS: poliovirus polymerase elongation, measured here: total intensity read-out, stronger effect = lower value, compound at 16.7 µg/mL
Among all 150,000 compounds or so, about 1,000 (0.67%) were called active. This is one part of a sample in which actives are shown more often than they occur.
Measured % elongation values are reported for all entries that follow.
Use % as the unit, but write only the number.

compound=O=C(CCc1nc(CN2CCN(S(=O)(=O)c3ccc(F)cc3)CC2)no1)N1CCCCC1 measured_attribute="% elongation" quantitative_result=112

Task item: Item C=C(C)CNC(=S)N=Nc1c(O)n(C)c2ccccc12 has what recorded % elongation?
Reply: 101

Task item: Note, next up: COc1ccc(C/C(C#N)=C/N2CCN(c3ccccc3F)CC2)cc1
Reply: 107
